Target: CDK4/Cyclin D1 (Homo sapiens (Human), UniProt P11802)
Sequence (P11802 whole entry): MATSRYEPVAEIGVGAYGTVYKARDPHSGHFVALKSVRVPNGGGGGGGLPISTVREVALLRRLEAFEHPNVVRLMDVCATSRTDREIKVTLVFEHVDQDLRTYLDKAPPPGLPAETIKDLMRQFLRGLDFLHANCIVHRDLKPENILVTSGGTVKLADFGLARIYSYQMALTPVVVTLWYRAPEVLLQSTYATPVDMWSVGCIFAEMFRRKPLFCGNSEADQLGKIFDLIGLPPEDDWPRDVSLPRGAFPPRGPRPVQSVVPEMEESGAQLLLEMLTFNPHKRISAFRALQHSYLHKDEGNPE
Sequence (P24385 whole entry partner): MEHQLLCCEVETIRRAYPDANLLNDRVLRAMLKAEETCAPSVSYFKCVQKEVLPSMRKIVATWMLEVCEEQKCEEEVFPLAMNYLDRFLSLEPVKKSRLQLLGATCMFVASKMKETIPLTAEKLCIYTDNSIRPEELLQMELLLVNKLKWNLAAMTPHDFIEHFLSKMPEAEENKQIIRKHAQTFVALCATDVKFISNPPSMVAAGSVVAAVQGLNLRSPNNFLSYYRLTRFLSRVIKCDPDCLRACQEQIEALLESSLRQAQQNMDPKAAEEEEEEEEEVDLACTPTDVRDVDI
Experiment: CDK4/Cyclin D1 kinase assay (Nanosyn, Caliper microfluidic)
Conditions: 12-point dose-response, singlicate, at Km for ATP; ATP 200 μM; 3 hr
Result type: IC50 (nM)

| Test smiles | IC50 / nM |
| --- | --- |
| CN1N=CC2(CCCCC2)n2c1cc1cnc(Nc3ccc(S(N)(=O)=O)cc3)nc12 | 41 |
| NS(=O)(=O)c1ccc(Nc2ncc3cc4n(c3n2)C2(CCCCC2)CC(=O)N4)cc1 | 41 |

[P] NS(=O)(=O)c1ccc(Nc2ncc3cc4n(c3n2)C2(CCCCC2)C(=O)NN4)cc1
[Q] O=C(c1ccc(Nc2ncc3cc4n(c3n2)C2(CCCCC2)C(=O)NN4)cc1)N1CCOCC1
Query: Min IC50? P | Q Refer to your chosen item by its label in the answer.
Response: Q

[a] NC(=O)c1ccc(Nc2ncc3cc4n(c3n2)C2(CCCCC2)C(=O)NN4)cc1
[b] CN1CCN(S(=O)(=O)c2ccc(Nc3ncc4cc5n(c4n3)C3(CCCCC3)CC(=O)N5)cc2)CC1
Query: Min IC50? a | b Refer to your chosen item by its label in the answer.
Response: b
(b: 41 nM, a: 253 nM)

* * *

Target: CDK2/Cyclin A (Homo sapiens (Human))
Experiment: CDK2/Cyclin A kinase assay (Nanosyn, Caliper microfluidic)
Type: biochemical
Settings: 12-point dose-response, singlicate, at Km for ATP; ATP 50 μM; 3 hr
pIC50: −log10 of the molar value.
Result type: pIC50

# annotated cases, reported pIC50 shown
| Compound | Experimental system | pIC50 |
| --- | --- | --- |
| CN1NC(=O)C2(CCCCC2)n2c1cc1cnc(Nc3ccc(S(N)(=O)=O)cc3)nc12 [Compound 12] | CDK2/Cyclin A (Homo sapiens (Human)) | 8.04 |
| Nc1ccc(S(=O)(=O)Nc2ncc3cc4n(c3n2)C2(CCCCC2)CNC4=O)cc1 [Compound 91] | CDK2/Cyclin A (Homo sapiens (Human)) | 6.49 |
| CNC(=O)Nc1ccc(Nc2ncc3cc4n(c3n2)C2(CCCCC2)C(=O)NN4)cc1 [Compound 68] | CDK2/Cyclin A (Homo sapiens (Human)) | 6.08 |

[1] CC1C(=O)Nc2cc3cnc(Nc4ccc(C(=O)N5CCN(C)CC5)cc4)nc3n2C12CCCCC2 (stereo not drawn) [Compound 71]
[2] CN(C)C(=O)c1ccc(Nc2ncc3cc4n(c3n2)C2(CCCCC2)C(=O)NN4)cc1 [Compound 62]
[3] CN1CCN(C(=O)c2ccc(Nc3ncc4cc5n(c4n3)C3(CCCCC3)CC(=O)N5)cc2)CC1 [Compound 54]
Query: Ordering: ascending pIC50. Rank the items, then write their labels in that order.
Response: 2, 1, 3

* * *

Target: CDK1/Cyclin B1 (Homo sapiens (Human))
Sequence (P06493 whole entry): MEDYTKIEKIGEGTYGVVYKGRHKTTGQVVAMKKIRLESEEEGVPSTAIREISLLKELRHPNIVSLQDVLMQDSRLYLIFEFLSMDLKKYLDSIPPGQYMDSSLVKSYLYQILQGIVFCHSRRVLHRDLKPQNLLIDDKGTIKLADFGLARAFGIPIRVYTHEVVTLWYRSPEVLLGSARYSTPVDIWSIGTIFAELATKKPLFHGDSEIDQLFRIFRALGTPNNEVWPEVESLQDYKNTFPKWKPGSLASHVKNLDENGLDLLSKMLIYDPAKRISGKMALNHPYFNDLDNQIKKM
Sequence (P14635 whole entry partner): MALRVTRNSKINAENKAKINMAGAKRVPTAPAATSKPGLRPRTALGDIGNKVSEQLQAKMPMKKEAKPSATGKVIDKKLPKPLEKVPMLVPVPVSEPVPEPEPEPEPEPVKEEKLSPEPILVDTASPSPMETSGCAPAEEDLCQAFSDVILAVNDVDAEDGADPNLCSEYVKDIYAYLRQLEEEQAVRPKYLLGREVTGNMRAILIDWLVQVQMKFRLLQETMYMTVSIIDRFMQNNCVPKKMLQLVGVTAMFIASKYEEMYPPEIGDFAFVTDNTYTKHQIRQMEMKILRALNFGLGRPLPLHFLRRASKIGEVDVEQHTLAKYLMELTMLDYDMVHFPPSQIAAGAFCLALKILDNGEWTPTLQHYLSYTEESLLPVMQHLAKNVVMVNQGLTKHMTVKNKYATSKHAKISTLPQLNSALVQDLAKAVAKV
Test: CDK1/Cyclin B1 kinase assay (Nanosyn, Caliper microfluidic)
Type: biochemical
Conditions: 12-point dose-response, singlicate, at Km for ATP; ATP 40 μM; 3 hr
pIC50: −log10 of the molar value.
Result type: pIC50

| Test smiles | Experimental system | Value observed |
| --- | --- | --- |
| Nc1ccc(S(=O)(=O)Nc2ncc3cc4n(c3n2)C2(CCCCC2)CNC4=O)cc1 | CDK1/Cyclin B1 (Homo sapiens (Human)) | < 6.00 |

Query: Tell me reported pIC50 for "Nc1ccc(S(=O)(=O)Nc2ncc3cc4n(c3n2)C2(CCCCC2)C(=O)NN4)cc1" , tested with CDK1/Cyclin B1 (Homo sapiens (Human)).
Response: < 6.00

Query: Tell me reported pIC50 for "CNC(=O)Nc1ccc(Nc2ncc3cc4n(c3n2)C2(CCCCC2)C(=O)NN4)cc1" , tested with CDK1/Cyclin B1 (Homo sapiens (Human)).
Response: < 6.00

Cited source: patent US20240150369A1
